Experiment: NCI Yeast Anticancer Drug Screen. Data for the sgs1 mgt1 strain (AID 161);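 note: 0% = growth of cultures given vehicle only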
Conditions: S. cerevisiae sgs1 mgt1 strain, at 50.0 µM, active compounds read high
Compounds without any hit were thinned out: in the full panel of roughly 79,000, 15% have a hit. Active and inactive are the calls of the source. Cut-off read from the data, not from the text of the source: active = growth inhibition above about 70%; inactive = the rest.
Would you kindly list growth inhibition for each of these compounds?

Answered examples (5):
COMPOUND	growth inhibition
O=c1cc[nH]c2cc(C(F)(F)F)ccc12	-16.7% (inactive)
CCN(C(=S)Nc1cccc(OC)c1)c1ccccc1	18% (inactive)
CC(=O)NC1CC(C)(C)NC(C)(C)C1	3.45% (inactive)
Cn1c(=O)c2c(ncn2CN2CCN(Cn3cnc4c3c(=O)n(C)c(=O)n4C)CC2)n(C)c1=O	-7.45% (inactive)
O=C1C2C3C=C4c5ccccc5N(c5ccccc5)C4([C@@H]2C(=O)N1c1ccc(F)cc1)[C@H]1C(=O)N(c2ccc(F)cc2)C(=O)[C@@H]31 (stereo partly specified)	11.5% (inactive)

Fill in growth inhibition for record `O=C(NCc1ccccc1)NCc1ccccc1`
-2.5% (inactive)

* * *

Assay: NCI Yeast Anticancer Drug Screen. Data for the mec2-1 strain (AID 157)
Conditions: S. cerevisiae mec2-1 strain, at 50.0 µM, active compounds read high
This is part of a sample that, as a whole, favours compounds with a hit. Of some 79,000 tested, about 15% had one in any assay. Activity calls are given as the source filed them. Cut-off read from the data, not from the text of the source: active = growth inhibition above about 70%; inactive = the rest.
REPORTED METRIC: growth inhibition

MOLECULE	REPORTED METRIC	RESULT
O=C(Cl)c1cc2ccccc2c2c(=O)c3ccc4cc5ccccc5cc4c3[nH]c12	growth inhibition	-3.2% (inactive)

Need growth inhibition for each of these molecules.
1. CCC(=O)CCN(CC)CC
2. O=C(O)CNC1=NCCN1
3. Nc1ccc(N)c(Cl)c1
4. COC1OC(CCl)C(Cl)C(OC)C1OC (stereo unspecified)

-33.3% (inactive)
2.5% (inactive)
-15.8% (inactive)
-1.1% (inactive)

Fill in growth inhibition for record `S=C1N=C(Cl)/C(=C\c2ccccc2)N1`
-23.9% (inactive)

* * *

Experiment: NCI Yeast Anticancer Drug Screen. Data for the sgs1 mgt1 strain (AID 161);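 note: 0% = growth of cultures given vehicle only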
Conditions: S. cerevisiae sgs1 mgt1 strain, at 50.0 µM, active compounds read high
The panel holds about 79,000 compounds, 15% with a hit somewhere; the sample as a whole holds those more often.
Would you kindly list growth inhibition for each of these molecules?
One number for each entry, in %.

Answered examples (2):
MOLECULE	growth inhibition [%]
CC(=O)CC(=O)N1CCCC(C)C1 (stereo not drawn)	-38.5
Cc1ccc(C2(O)c3ccccc3N=NN2C)cc1 (stereo not drawn)	4

Query molecule follows.
Fill in growth inhibition for record `OC(c1ccccc1)(C(F)(F)F)C(F)(F)F`
6.1

* * *

Would you kindly list growth inhibition for each of these compounds?
Test: NCI Yeast Anticancer Drug Screen. Data for the sgs1 mgt1 strain (AID 161);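 note: 0% = growth of cultures given vehicle only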
Conditions: S. cerevisiae sgs1 mgt1 strain, at 50.0 µM, active compounds read high
Description: Growth inhibition of yeast strains with defined genetic alterations is measured as a screen for potential anti-cancer activity. Selected strains with alterations in DNA damage repair or cell cycle control were exposed to compounds and growth inhibition was measured relative to vehicle treated controls. The strain used in this assay is sgs1 mgt1
About 79,000 compounds went through this panel and 15% of them were active in at least one assay; those are over-represented in the sample as a whole.
One number for each entry, in %.

COMPOUND	growth inhibition (%)
O=C(NNC1=NCCN1Cc1ccccc1)c1cccc(Cl)c1	13.3
Cc1cccc2c1sc1c(C)cc(C(=O)CCC(=O)O)cc12	5.3
Nc1cc(CO)cc(Nc2c3ccccc3nc3ccccc23)c1	-30.8
COC[N+](C)(C)C	-7.6
CCCCNc1ncnc2c1cnn2C	-28.2
COC1=CC(=O)C(C(C)=O)=C(O)C1=O	-6.5

Need growth inhibition for each of these compounds.
1. O=C(Nc1ccc(C(=O)CCl)cc1)Nc1ccc(C(=O)CCl)cc1
2. CN(C)c1ccc([N+](=O)[O-])c2c1CCC2
3. CCOC(=O)c1nn2c(nc1=O)sc1ccc3ccccc3c12
4. CCCCC(O)C(C)(C)C (stereo not given)
5. Clc1ccc(-c2nnc3c4ccccc4ccn23)cc1
6. Cc1cc(C)c(CCl)c(C)c1CCl

20.2
7.25
7.8
3.55
-5.1
-9.1
